Entry source: ChEMBL document CHEMBL4342415

# assayText: Unbound fraction in human KHYG-1 cell media
# Assay type: ADME
measuredParameter: fraction unbound

CN1Cc2cc(-c3ccc(-c4cncc(NS(=O)(=O)c5ccc(F)cc5F)c4)s3)cnc2C1=O :: 0.456

Let's switch to this molecule now.
Tell us which fraction unbound value is on record for COc1ncc(-c2ccc(-c3cnc4c(c3)CN(C)C4=O)s2)cc1NS(=O)(=O)c1ccc(F)cc1F
0.255

----------
# assayText: Time at which unbound plasma concentration stays above IC50 in C57BL/6 mouse at 90 mg/kg, ip
# Format: ADME, organism-based
# conditionSummary: in vivo
measuredParameter: Time

Tell us which Time value is on record for COc1ncc(-c2ccc(-c3cnc4c(c3)CN(C)C4=O)s2)cc1NS(=O)(=O)c1ccc(F)cc1F
5 to 6 h
